Molecular target: Tnk1 (thirty-eight negative kinase 1) (Homo sapiens)
Sequence (Q13470 1-510 isoform Q13470-2): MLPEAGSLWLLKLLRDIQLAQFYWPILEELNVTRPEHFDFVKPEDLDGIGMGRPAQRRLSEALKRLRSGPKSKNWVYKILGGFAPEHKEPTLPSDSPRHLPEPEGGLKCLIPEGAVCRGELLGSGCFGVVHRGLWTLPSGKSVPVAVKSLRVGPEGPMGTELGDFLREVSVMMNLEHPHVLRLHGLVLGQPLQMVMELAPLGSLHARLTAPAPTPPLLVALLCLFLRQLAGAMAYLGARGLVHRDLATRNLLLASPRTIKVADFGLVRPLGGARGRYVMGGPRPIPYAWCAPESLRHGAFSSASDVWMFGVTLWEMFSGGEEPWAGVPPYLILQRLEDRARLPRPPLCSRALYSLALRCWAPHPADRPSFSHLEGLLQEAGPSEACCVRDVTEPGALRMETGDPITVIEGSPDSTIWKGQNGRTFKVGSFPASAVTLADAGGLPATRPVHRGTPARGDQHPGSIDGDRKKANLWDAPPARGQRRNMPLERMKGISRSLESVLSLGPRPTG
Measured Metric: pIC50
Units for pIC50: none; it is -log10 of a concentration expressed in mol/L.

What value of pIC50 has been recorded for this entry: CN1CCN(c2ccc(Nc3ncc(Cl)c(NC[C@H]4CCCO4)n3)cc2)CC1 [(R)-9b]
6.33
